Data origin: the supplement of paper PMC11061612

# System: SAT (Head and Neck Carcinoma);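 further: after 72 h of two-drug dosing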
# ASSAY PROCEDURE: Bliss excess, mean over the matrix (fraction); higher = more synergy
QUANTITY KIND: Bliss excess
Give bare numbers.

Use the examples below as a reference point.
COMPOUND	Bliss excess
CCN(CCO)CCCOc1ccc2c(Nc3cc(CC(=O)Nc4cccc(F)c4)[nH]n3)ncnc2c1 [AZD2811] + O=C(c1cc(Cc2n[nH]c(=O)c3ccccc23)ccc1F)N1CCN(C(=O)C2CC2)CC1 [Olaparib] (first compound max 1 µM, 7x7, partner max 10 µM)	-0.0469
COc1cccc(OCCCN)c1-c1cc(Nc2cnc(C#N)cn2)n[nH]1 [Prexasertib] + C[C@@H]1COCCN1C2=NC(=NC(=C2)C3(CC3)[S@](=N)(=O)C)C4=C5C=CNC5=NC=C4 [AZD6738] (first compound max 1 µM, 7x7, partner max 10 µM)	-0.0238
CC1(C)CCC(CN2CCN(c3ccc(C(=O)NS(=O)(=O)c4ccc(NCC5CCOCC5)c([N+](=O)[O-])c4)c(Oc4cnc5[nH]ccc5c4)c3)CC2)=C(c2ccc(Cl)cc2)C1 [Venetoclax] + Cn1cnc2c(F)c(Nc3ccc(Br)cc3Cl)c(C(=O)NOCCO)cc21 [Selumetinib] (first compound max 1 µM, 7x7, partner max 3 µM)	0.0334

The compound identified as Cc1cc2ncnn2cc1Nc1ncc2c(n1)n(C1CCOCC1)c(=O)n2C [AZD7648] + O=C(c1cc(Cc2n[nH]c(=O)c3ccccc23)ccc1F)N1CCN(C(=O)C2CC2)CC1 [Olaparib] (first compound max 10 µM, 7x7, partner max 10 µM) registered its Bliss excess at -0.039
